biological target: Sodium-dependent noradrenaline transporter (Homo sapiens, UniProt P23975); assay: Displacement of [125I]RTI55 from human recombinant NET expressed in HEK293 cells
Sequence (P23975 whole entry): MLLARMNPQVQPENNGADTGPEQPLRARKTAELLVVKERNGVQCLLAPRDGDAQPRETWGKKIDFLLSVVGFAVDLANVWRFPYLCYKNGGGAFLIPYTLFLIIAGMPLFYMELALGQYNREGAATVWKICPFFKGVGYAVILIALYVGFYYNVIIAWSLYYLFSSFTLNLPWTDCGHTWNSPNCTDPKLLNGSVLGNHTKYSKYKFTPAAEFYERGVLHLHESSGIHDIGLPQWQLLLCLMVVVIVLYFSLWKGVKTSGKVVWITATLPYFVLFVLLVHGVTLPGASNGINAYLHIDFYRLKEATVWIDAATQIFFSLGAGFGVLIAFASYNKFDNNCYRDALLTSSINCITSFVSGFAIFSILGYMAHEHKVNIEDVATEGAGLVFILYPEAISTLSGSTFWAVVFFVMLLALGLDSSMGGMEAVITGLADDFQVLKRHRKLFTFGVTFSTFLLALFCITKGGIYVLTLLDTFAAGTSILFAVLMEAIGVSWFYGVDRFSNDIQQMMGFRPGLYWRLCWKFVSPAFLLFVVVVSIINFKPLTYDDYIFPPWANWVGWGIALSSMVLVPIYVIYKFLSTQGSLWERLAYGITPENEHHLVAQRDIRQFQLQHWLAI
REPORTED METRIC: Ki (µM)

[P] NCC[C@@H](Oc1ccc(C(F)(F)F)cc1)c1ccccc1
[Q] COc1ccc(C2=NN(CCCCCNCC[C@H](Oc3ccc(C(F)(F)F)cc3)c3ccccc3)C(=O)C3CC=CCC23)cc1OC (stereo not given in full)
-- ask Param metric = Ki; output whichever of P , Q has the minimum value. Mark your selection by writing its label.
-- reply Q

###

target: UniProtKB P31645; test: Inhibition of [3H]5HT from human recombinant SERT expressed in HEK293 cells; format: cell-based
Sequence (P31645 whole entry): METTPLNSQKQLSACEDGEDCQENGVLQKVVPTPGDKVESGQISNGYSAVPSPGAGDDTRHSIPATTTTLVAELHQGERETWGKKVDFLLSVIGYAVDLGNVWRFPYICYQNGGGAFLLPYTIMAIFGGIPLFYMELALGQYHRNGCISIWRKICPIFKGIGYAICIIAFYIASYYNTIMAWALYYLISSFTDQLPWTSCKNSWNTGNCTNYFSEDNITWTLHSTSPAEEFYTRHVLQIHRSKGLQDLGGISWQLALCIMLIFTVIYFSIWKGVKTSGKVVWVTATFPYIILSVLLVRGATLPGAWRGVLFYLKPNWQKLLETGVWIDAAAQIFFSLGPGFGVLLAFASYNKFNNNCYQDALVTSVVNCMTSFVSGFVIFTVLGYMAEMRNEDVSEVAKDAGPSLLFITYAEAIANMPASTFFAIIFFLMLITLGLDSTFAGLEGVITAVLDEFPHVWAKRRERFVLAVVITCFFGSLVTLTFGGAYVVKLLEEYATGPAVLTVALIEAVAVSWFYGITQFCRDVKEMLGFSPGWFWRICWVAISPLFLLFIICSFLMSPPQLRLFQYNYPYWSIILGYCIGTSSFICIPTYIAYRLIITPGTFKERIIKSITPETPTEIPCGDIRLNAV
REPORTED METRIC: IC50 (nM)

[P] COc1ccc(C2=NN(CCCCCNCC[C@@H](Oc3ccc(C(F)(F)F)cc3)c3ccccc3)C(=O)C3CC=CCC23)cc1OC (some centres undefined)
[Q] COc1ccc(C2=NN(CCCCCNCC[C@H](Oc3ccc(C(F)(F)F)cc3)c3ccccc3)C(=O)C3CC=CCC23)cc1OC (some centres undefined)
-- ask Which record would sort first by descending IC50, P or Q ? Mark your selection by writing its label.
-- reply P
(P: 173 nM, Q: 42 nM)

###

molecular target: Sodium-dependent dopamine transporter (Homo sapiens); assay: Inhibition of [3H]DA from human recombinant DAT expressed in HEK293 cells
Sequence (Q01959 whole entry): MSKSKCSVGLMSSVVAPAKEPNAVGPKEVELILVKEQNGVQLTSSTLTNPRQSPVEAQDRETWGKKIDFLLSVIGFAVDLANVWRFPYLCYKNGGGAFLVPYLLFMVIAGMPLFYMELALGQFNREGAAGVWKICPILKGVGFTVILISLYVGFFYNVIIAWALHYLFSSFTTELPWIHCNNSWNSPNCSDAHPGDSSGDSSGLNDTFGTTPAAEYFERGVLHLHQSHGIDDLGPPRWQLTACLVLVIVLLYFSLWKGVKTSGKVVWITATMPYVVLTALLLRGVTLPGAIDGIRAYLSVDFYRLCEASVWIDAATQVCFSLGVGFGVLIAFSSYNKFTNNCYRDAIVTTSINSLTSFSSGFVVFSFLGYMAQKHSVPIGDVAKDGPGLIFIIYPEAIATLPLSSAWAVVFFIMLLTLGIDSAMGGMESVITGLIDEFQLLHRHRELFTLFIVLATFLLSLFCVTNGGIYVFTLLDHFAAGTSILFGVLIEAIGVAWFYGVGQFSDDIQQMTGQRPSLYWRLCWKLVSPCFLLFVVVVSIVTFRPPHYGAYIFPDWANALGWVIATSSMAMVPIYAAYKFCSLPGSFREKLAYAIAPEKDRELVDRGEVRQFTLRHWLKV
pIC50: −log10 of the molar value.
REPORTED METRIC: pIC50

For orientation, consider the following solved cases.
MOLECULE	pIC50
COc1ccc(C2=NN(CCCCCBr)C(=O)C3CC=CCC23)cc1OC (stereo not drawn)	< 4.00
COc1ccc(C2=NN(CCCCCNCC[C@@H](Oc3ccc(C(F)(F)F)cc3)c3ccccc3)C(=O)C3CC=CCC23)cc1OC (stereo partly drawn)	< 5.15

-- ask Query the reported pIC50 for Sodium-dependent dopamine transporter (Homo sapiens); item: COc1ccc(C2=NNC(=O)C3CC=CCC23)cc1OC (stereo not drawn)
-- reply < 4.00

###

molecular target: UniProt:P23975; assay: Displacement of [125I]RTI55 from human recombinant NET expressed in HEK293 cells
REPORTED METRIC: Ki (µM)

COMPOUND	TARGET OR SYSTEM	UNIT ABBREV	ASSAY RESULT
COc1ccc(C2=NN(CCCCCNCC[C@@H](Oc3ccc(C(F)(F)F)cc3)c3ccccc3)C(=O)C3CC=CCC23)cc1OC (stereo partly drawn)	UniProt:P23975	µM	6.57
NCC[C@H](Oc1ccc(C(F)(F)F)cc1)c1ccccc1 [SEPROXETINE]	UniProt:P23975	µM	6.19
